TARGET_DESC: p110 delta (Homo sapiens (Human))
Sequence (O00329 whole entry, canonical isoform): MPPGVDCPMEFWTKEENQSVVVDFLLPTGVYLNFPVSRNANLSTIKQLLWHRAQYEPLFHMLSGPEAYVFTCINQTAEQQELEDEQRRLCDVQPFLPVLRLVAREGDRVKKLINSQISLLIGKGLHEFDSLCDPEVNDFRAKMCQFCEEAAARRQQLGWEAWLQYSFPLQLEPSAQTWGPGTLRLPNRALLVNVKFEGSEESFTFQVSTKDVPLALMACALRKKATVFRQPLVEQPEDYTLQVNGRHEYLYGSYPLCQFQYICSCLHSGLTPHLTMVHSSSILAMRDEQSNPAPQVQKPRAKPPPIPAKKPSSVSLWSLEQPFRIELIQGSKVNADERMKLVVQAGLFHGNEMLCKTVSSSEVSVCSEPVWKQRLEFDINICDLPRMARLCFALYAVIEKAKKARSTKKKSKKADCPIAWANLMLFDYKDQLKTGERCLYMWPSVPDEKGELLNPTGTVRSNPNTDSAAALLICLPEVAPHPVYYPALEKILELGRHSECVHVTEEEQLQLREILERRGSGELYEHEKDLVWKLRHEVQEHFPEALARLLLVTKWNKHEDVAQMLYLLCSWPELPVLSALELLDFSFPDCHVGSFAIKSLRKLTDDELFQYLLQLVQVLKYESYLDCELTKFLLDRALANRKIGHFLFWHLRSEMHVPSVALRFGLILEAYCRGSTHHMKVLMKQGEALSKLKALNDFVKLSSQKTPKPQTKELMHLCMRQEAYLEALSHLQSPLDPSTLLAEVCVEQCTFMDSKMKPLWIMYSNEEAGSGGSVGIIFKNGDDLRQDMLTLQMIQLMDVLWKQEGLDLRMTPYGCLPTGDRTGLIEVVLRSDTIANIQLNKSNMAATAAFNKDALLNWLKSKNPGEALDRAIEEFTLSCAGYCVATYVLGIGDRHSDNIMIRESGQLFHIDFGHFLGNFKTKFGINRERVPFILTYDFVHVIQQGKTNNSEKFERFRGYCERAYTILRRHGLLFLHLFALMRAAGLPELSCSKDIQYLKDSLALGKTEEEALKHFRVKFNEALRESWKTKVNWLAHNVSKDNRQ
Sequence (P27986 whole entry partner, canonical isoform): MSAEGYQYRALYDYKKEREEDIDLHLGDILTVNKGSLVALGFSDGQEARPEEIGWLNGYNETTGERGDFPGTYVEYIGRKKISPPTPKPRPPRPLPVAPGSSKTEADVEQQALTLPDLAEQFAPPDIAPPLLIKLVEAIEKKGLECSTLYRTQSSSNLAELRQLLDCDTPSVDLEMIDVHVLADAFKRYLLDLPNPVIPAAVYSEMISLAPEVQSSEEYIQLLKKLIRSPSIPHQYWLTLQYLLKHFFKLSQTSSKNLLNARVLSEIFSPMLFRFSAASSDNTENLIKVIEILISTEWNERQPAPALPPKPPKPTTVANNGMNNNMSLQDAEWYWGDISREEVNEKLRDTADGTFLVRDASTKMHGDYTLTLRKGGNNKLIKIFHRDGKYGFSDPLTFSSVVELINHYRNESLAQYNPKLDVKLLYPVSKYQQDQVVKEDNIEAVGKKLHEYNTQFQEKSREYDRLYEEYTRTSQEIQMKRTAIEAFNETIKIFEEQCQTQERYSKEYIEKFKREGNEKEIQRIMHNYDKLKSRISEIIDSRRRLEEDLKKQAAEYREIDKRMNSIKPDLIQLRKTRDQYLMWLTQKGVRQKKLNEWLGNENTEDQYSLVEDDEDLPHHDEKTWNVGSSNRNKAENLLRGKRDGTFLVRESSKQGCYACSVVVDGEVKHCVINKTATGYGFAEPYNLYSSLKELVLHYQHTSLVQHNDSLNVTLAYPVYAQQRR
PROTOCOL_DESCRIPTION: PI3K isoform inhibition assay, p110 delta (fluorescence polarization displacement)
Experimental: PI3K enzymatic activity was assayed by measuring the amount of product phosphatidylinositol 3,4,5-phosphate (PIP3) formed from substrate 4,5 phosphatidylinositol 4,5-phosphate (PIP2) using a fluorescence polarization displacement assay. The decrease in fluorescence polarization of a fluorescent PIP3 probe is measured as it is displaced from a PIP3-binding protein GRP-1 detector by PI3K-catalyzed product. […]
pIC50: −log10 of the molar value.
MEASUREMENT_KIND: pIC50

Consider the worked cases shown below.
INSERT INTO results (compound, target_desc, measurement_kind, number) VALUES
  ('Cc1nc(-c2cn3c(n2)-c2cc([C@H](C)N4CCN(C(C)(C)CO)CC4)ncc2OCC3)n(C(C)C)n1', 'p110 delta (Homo sapiens (Human))', 'pIC50', 8.68),
  ('Cc1nc(-c2cn3c(n2)-c2cc([C@@H](C)N4CCN(CC(C)(C)O)CC4)c(F)cc2OCC3)n(C(C)C)n1', 'p110 delta (Homo sapiens (Human))', 'pIC50', 7.98);

1. Cc1nc(-c2cn3c(n2)-c2ccc(OC4(CN5CCN(C)CC5)CC4)cc2OCC3)n(C(C)C)n1
2. COc1cc2c(cc1[C@H](C)N1CCN(C(C)(C)C)CC1)-c1nc(-c3nc(C)nn3C(C)C)cn1CCO2 [Example 371]
Pick one: 1 or 2 . Which one has the lower reported pIC50? I would appreciate it if you answered with the label of your choice.
2
(2: 8.28, 1: 8.48)

###

TARGET_DESC: p110 alpha (Homo sapiens (Human), UniProt P42336)
Sequence (P42336 whole entry, canonical isoform): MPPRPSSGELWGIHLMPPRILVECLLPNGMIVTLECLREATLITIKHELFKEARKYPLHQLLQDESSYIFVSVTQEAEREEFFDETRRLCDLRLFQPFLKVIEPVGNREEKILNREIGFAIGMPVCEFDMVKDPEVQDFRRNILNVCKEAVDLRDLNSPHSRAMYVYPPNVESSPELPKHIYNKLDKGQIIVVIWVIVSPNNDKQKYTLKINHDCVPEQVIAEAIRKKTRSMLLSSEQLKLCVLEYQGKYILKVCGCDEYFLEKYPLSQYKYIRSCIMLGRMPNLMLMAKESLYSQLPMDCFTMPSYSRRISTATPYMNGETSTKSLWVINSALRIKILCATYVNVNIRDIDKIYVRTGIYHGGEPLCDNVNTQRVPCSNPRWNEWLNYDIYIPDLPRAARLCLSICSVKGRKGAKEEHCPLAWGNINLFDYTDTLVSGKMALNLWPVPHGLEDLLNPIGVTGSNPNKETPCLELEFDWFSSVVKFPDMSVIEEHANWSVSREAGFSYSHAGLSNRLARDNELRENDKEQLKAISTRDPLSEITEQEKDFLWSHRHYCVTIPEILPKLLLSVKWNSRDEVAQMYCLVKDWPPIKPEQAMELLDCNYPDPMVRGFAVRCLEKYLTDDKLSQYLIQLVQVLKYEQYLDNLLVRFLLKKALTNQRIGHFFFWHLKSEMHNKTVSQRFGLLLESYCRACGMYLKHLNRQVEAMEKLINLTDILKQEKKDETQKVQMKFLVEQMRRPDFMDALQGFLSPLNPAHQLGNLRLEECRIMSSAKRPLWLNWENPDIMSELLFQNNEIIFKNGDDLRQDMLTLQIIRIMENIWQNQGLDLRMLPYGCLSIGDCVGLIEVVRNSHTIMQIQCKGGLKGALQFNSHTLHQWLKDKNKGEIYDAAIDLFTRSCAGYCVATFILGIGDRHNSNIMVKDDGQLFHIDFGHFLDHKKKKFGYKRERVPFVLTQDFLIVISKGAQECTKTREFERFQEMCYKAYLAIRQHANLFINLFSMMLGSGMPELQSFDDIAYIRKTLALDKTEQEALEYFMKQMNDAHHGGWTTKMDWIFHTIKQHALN
Sequence (P27986 whole entry partner, canonical isoform): as the sequence (P27986 whole entry partner, canonical isoform) above
PROTOCOL_DESCRIPTION: PI3K isoform inhibition assay, p110 alpha (for alpha/delta selectivity)
CONDITION_DESCRIPTION: ratio of biochemical IC50 values
MEASUREMENT_KIND: IC50 p110 alpha/IC50 p110 delta

Some solved entries appear below for comparison.
INSERT INTO results (molecule, target_desc, measurement_kind, number) VALUES
  ('Cc1nc(-c2cn3c(n2)-c2ccc(-c4cnn(C)c4C4CC(N(C)C(C)C)CCO4)cc2OCC3)n(C(C)C)n1 (stereo not drawn) [Example 335]', 'p110 alpha (Homo sapiens (Human), UniProt P42336)', 'IC50 p110 alpha/IC50 p110 delta', 96.5),
  ('Cc1nc(-c2cn3c(n2)-c2cc(C(O)C4CCN(C)CC4)ccc2OCC3)n(C(C)C)n1 (stereo not drawn)', 'p110 alpha (Homo sapiens (Human), UniProt P42336)', 'IC50 p110 alpha/IC50 p110 delta', 10.8),
  ('CC(C)n1nc(N)nc1-c1cn2c(n1)-c1ccc(-c3ccnn3C3CCN(C)CC3)cc1OCC2', 'p110 alpha (Homo sapiens (Human), UniProt P42336)', 'IC50 p110 alpha/IC50 p110 delta', 54.6);

I. Cc1nc(-c2cn3c(n2)-c2ccc(-c4ccnn4C4CCCN(Cc5ccccc5)C4)cc2OCC3)n(C(C)C)n1 (stereo not drawn)
II. Cc1nc(-c2cn3c(n2)-c2ccc(N4CCCC4C4CCN(CC(C)(C)O)CC4)cc2OCC3)n(C(C)C)n1 (stereo not drawn) [Example 274]
Which has the higher IC50 p110 alpha/IC50 p110 delta, I or II ? Answer format: the label of the selected item.
II
(II: 34, I: 21.8)

P. Cc1nc(-c2cn3c(n2)-c2ccc(N4CCCC45CCCN(C(C)C)C5)cc2OCC3)n(C(C)C)n1 (stereo not drawn)
Q. Cc1nc(-c2cn3c(n2)-c2cc([C@H](C)N4CCN(C(C)(C)CO)CC4)c(F)cc2OCC3)n(C(C)C)n1
Exercise: compare P and Q ; which one has the greater IC50 p110 alpha/IC50 p110 delta? Identify your selection by its label.
Q

A. Cc1nc(-c2cn3c(n2)-c2ccc(N4CCCC4C4CCN(CC(C)(C)O)CC4)cc2OCC3)n(C(C)C)n1 (stereo not drawn) [Example 272]
B. Cc1nc(-c2cn3c(n2)-c2ccc(N4CCCC4C4CCCCN4C)cc2OCC3)n(C(C)C)n1 (stereo not drawn) [Example 323]
Field: lower IC50 p110 alpha/IC50 p110 delta | Options: A / B Provide the label of your selected option as the answer.
B
(B: 11.7, A: 49.9)
